# system: human Cav2.2 (composed of the subunits α1, β3 and α2δ) (Homo sapiens)
# assay.remarks: FLIPR assay (TSA201 cells stably transfected with human Cav2.2 and human Kir2.3, FLUO-4 Ca2+ signal, KCl depolarization)
# experimental.context: 70 mM KCl depolarization, average value
pIC50: −log10 of the molar value.
measured.quantity: pIC50

Sample answers from the record:
CCN(c1ccc(CN(C(=O)C(C)(C)C)c2ccc(F)cc2)cn1)C1CC1; 5.89
CN1CCN(c2ccc(CN(C(=O)[C@@H]3CCN(C(=O)C(C)(C)C)C3)c3ccc(F)cc3)cn2)CC1; 4.25
CC(=O)N(Cc1csc(N2CCCC(O)C2)n1)c1ccc(F)cc1 (centres unmarked); 4.50
Cc1cc(F)ccc1N(Cc1cnc(N2CCCCC2)nc1)C(=O)[C@@H]1CCCN1; 4.86
Cc1ccc(N(Cc2cnc(N3CCCC3)s2)C(=O)[C@@H]2CCCN2)cc1; 4.68

[P] CN(c1ccc(F)cc1)c1nc(CN(C(=O)C(C)(C)C)c2ccc(F)cc2)cs1
[Q] CC(=O)N(Cc1ccc(N(C)CCO)nc1)c1ccc(F)cc1
Please choose the item with the lower pIC50 value from this pair: P and Q Response format: the label of the selected entry. Q
(Q: 4.34, P: 5.12)

---

# system: human Cav2.2 (composed of the subunits α1, β3 and α2δ) (Homo sapiens, UniProt Q00975)
# Sequence (Q00975 whole entry): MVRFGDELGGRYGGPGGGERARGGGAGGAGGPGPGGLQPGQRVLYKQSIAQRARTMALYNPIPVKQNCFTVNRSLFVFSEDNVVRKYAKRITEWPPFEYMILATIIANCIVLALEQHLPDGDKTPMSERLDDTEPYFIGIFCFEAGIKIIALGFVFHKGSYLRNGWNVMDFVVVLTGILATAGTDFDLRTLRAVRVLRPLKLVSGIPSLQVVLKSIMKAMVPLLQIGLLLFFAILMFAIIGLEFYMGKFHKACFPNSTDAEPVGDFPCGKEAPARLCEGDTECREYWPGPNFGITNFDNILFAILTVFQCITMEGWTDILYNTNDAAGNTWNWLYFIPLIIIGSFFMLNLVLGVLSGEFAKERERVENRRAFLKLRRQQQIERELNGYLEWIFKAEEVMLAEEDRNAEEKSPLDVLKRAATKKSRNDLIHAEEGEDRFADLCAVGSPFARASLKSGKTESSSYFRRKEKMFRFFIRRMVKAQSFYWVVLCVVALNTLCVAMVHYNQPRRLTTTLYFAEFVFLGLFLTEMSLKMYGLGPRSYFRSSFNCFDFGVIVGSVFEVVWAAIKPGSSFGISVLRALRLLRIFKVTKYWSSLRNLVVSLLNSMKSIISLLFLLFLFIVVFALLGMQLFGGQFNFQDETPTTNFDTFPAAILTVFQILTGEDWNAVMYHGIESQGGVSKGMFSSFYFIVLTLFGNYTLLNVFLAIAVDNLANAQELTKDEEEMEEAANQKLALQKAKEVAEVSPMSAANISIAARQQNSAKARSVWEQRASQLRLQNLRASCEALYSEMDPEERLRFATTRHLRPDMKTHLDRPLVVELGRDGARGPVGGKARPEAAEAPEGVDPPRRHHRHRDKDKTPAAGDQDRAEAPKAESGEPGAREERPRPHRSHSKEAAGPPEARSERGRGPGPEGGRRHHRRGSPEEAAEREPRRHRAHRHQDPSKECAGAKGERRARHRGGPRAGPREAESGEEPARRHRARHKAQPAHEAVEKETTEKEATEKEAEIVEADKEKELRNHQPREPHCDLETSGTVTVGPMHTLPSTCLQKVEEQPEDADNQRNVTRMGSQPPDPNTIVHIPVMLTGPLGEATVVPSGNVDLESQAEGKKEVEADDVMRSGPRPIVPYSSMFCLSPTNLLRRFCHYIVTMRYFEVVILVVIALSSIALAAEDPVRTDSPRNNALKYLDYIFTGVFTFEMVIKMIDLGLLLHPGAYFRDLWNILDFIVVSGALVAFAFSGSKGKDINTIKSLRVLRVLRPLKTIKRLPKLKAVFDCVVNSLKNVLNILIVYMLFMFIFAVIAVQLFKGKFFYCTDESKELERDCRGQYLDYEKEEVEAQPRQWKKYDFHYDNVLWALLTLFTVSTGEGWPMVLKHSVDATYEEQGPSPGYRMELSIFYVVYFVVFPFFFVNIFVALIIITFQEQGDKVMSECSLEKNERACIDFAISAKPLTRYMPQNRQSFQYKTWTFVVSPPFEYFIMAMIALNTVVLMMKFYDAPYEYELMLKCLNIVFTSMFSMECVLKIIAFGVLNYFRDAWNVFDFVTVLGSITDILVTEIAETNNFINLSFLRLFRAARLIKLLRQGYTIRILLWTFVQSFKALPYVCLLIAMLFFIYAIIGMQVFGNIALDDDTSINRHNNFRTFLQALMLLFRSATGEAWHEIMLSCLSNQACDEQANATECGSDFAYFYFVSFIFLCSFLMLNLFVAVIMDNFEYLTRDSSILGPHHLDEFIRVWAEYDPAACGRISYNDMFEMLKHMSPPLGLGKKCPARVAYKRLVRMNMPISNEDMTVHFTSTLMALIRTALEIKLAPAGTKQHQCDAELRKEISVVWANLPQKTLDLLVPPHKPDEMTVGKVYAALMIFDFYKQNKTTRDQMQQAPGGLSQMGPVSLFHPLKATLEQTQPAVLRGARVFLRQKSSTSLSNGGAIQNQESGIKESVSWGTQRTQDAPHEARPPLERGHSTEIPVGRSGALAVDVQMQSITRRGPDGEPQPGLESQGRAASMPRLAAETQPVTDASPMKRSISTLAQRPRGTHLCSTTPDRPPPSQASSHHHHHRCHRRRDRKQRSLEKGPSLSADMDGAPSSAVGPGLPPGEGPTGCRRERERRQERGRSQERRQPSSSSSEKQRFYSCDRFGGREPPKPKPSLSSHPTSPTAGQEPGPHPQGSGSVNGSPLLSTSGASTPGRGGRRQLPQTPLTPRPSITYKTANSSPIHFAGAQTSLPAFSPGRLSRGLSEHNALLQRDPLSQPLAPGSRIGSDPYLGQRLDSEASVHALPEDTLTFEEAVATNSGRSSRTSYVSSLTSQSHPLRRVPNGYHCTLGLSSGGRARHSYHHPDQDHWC
# Sequence (P54284 whole entry partner): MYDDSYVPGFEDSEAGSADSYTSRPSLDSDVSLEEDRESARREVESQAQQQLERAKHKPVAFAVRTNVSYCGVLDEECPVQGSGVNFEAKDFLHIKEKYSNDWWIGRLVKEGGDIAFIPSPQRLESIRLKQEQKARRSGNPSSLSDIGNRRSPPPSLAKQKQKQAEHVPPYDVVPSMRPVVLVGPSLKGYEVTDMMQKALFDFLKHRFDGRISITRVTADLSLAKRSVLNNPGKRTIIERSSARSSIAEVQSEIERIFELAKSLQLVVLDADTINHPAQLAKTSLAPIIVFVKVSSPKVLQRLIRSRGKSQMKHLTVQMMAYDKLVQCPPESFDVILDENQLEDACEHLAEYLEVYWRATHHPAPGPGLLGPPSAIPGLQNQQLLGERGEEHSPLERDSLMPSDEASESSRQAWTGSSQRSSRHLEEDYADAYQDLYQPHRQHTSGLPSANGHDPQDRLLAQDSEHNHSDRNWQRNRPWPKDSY
# Sequence (P54289 25-946 partner limits assumed): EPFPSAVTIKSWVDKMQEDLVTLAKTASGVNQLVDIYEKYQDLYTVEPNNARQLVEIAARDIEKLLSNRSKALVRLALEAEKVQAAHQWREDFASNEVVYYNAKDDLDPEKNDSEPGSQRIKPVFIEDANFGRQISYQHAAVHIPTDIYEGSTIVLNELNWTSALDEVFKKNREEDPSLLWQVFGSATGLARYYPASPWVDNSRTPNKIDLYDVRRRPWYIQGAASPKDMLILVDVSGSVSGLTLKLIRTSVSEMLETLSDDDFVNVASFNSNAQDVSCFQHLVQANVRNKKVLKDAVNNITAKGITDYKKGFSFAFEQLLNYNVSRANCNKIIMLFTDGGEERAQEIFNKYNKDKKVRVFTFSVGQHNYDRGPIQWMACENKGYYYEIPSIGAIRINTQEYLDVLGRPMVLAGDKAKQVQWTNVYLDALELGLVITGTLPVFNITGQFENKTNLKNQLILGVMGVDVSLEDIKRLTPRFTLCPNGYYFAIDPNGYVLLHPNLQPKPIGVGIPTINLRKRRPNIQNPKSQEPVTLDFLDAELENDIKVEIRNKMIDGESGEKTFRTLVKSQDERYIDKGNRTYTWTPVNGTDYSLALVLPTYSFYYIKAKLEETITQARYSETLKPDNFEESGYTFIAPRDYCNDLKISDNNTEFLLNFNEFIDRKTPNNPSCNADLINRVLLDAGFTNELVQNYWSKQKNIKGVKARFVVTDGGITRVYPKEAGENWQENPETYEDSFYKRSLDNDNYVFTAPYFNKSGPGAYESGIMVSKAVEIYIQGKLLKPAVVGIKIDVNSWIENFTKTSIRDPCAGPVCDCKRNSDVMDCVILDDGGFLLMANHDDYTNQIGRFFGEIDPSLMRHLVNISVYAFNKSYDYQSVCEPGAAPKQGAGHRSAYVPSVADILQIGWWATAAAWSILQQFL
# Sequence (P54289 947-1103 partner limits assumed): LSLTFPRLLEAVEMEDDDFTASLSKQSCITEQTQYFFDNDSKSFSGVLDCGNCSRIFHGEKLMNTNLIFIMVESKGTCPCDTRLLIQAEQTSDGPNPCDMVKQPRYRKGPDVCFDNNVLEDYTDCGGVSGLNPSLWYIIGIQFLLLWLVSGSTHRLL
# assay.remarks: FLIPR assay (TSA201 cells stably transfected with human Cav2.2 and human Kir2.3, FLUO-4 Ca2+ signal, KCl depolarization)
# experimental.context: 70 mM KCl depolarization, average value
measured.quantity: IC50 (µM)

Cc1ccc(OCCN(C)c2ccc(CN(C(=O)C(C)(C)C)c3ccc(F)cc3)cn2)nc1; 8.1
CC(=O)N(Cc1ccc(N2CCC(CO)CC2)nc1)C1CCCC1; 36.4
CC(=O)N(Cc1csc(N2CCOCC2)n1)c1ccc(F)cc1; 23.4
CC(=O)N(Cc1ccc(N2CCC(CO)CC2)nc1)C1CCCCC1; 23.9
CC(=O)N(Cc1csc(N2CCC(CO)CC2)n1)c1ccc(F)cc1; 12.3

[a] CCC(=O)N(CCc1cccnc1)c1ccc(CN(C(=O)C(C)(C)C)c2ccc(F)cc2)cn1
[b] CC(C)C(=O)N(Cc1csc(N2CCOCC2)n1)c1ccc(F)cc1
// compare measured IC50 between a and b ; output the lower one API: response body contains the label of the selected item. a

[P] CN(C)CCCN1CCN(c2nc(CN(C(=O)C(C)(C)C)c3ccc(F)cc3)cs2)CC1
[Q] CC(C)(C)C(=O)N(Cc1csc(N2CCSCC2)n1)c1ccc(F)cc1
[R] CC(CC(=O)N(Cc1ccc(N(C)CCc2ccccn2)nc1)c1ccc(F)cc1)C(F)(F)F (stereo not drawn)
Sort low-to-high on IC50, please. As an answer, provide the labels arranged in the order called for. Q, R, P
(Q: 1.6 µM, R: 2.6 µM, P: 19.8 µM)

[1] CN(CCO)c1ccc(CN(C(=O)C(C)(C)C)c2ccc(F)cc2)cn1
[2] CCN(c1ccc(CN(C(=O)[C@@H]2CCCN2)c2ccc(OC)cc2)cc1)C1CC1
Lab notebook, comparison: 1 versus 2 , higher IC50 goes to which? Please respond with the label that marks your chosen entry. 1

---

# system: Cav2.2 (Homo sapiens, UniProt Q00975)
# Construct: expressed in transfected cells; host or cells: HEK-293T/17 (transient, FuGENE 6)
# Sequence (Q00975 whole entry): as the sequence (Q00975 whole entry) above
# Sequence (P54284 whole entry partner): as the sequence (P54284 whole entry partner) above
# Sequence (P54289 25-946 partner limits assumed): as the sequence (P54289 25-946 partner limits assumed) above
# Sequence (P54289 947-1103 partner limits assumed): as the sequence (P54289 947-1103 partner limits assumed) above
# assay.remarks: HEK assay (whole-cell patch clamp, transiently transfected HEK-293T/17 cells, pulses P1 and P5)
# Format: cell-based
# experimental.context: fifth pulse (P5) of 5 Hz train, holding potential −100 mV, read-out: HEK Cav2.2 P5 IC50
Counter-ions that a name gives are not always drawn.
measured.quantity: IC50 (nM)

Some solved cases for reference:
CC(C)(C)C(=O)N(Cc1ccc(N2CC[C@@H](Oc3ccccn3)C2)nc1)c1ccc(F)cc1 [Compound 55]; 600
CCN(CC)c1ccc(N(Cc2csc(N(C)c3ccc(F)cc3)n2)C(=O)C(C)(C)C)cc1 [Compound 88]; 100

[P] CC(C)(C)C(=O)N(Cc1csc(N2CCCCC2)n1)c1ccc(F)cc1 [Compound 2, hydrochloride]
[Q] CC(CC(=O)N(Cc1ccc(N(C)CCc2ccccn2)nc1)c1ccc(F)cc1)C(F)(F)F (stereo not shown) [Compound 23]
Sort P and Q by IC50 descending and give the first. Mark your answer with the label of the selected entry. P
(P: 2000 nM, Q: 1100 nM)

---

# system: Cav2.2 (Homo sapiens, UniProt Q00975)
# Construct: expressed in transfected cells; host or cells: HEK-293T/17 (transient, FuGENE 6)
# assay.remarks: HEK assay (whole-cell patch clamp, transiently transfected HEK-293T/17 cells, pulses P1 and P5)
# Type: cell-based
# experimental.context: fifth pulse (P5) of 5 Hz train, holding potential −100 mV, read-out: HEK Cav2.2 P5 IC50
pIC50: −log10 of the molar value.
measured.quantity: pIC50

CC(C)(C)C(=O)N(Cc1ccc(NC2CC2)nc1)c1ccc(F)cc1; 5.14

[a] CC(C)(C)C(=O)N(Cc1ccc(N2CCC(c3nc4ccccc4[nH]3)CC2)nc1)c1ccc(F)cc1
[b] CC(C)(C)C(=O)N(Cc1ccc(N2CCC(N3CCOCC3)CC2)nc1)c1ccc(F)cc1
[c] CCN(CC)c1ccc(CN(C(=O)C(C)(C)n2cc(CN(C)C)nn2)c2ccc(F)cc2)cn1
Put the compounds in ascending order of pIC50. Provide your answer as the labels ordered per the instruction. b, c, a

---

# system: human Cav2.2 (composed of the subunits α1, β3 and α2δ) (Homo sapiens)
# assay.remarks: FLIPR assay (TSA201 cells stably transfected with human Cav2.2 and human Kir2.3, FLUO-4 Ca2+ signal, KCl depolarization)
# experimental.context: 70 mM KCl depolarization, average value
pIC50: −log10 of the molar value. Where a name gives a salt, the structure may show the parent alone.
measured.quantity: pIC50

Before answering, review these 8 worked examples.
CC(C)(C)C(=O)N(Cc1csc(N2CCN(c3ncccn3)CC2)n1)c1ccc(F)cc1 [Compound 151, dihydrochloride]; 5.40
CCN(CC)c1ccc(CN(C(=O)Cc2cccs2)c2ccc(F)cc2)cn1 [Compound 129]; 5.82
CC(=O)N(Cc1csc(Br)n1)c1ccc(F)cc1 [Compound 214]; 4.31
CC(C)(C)C(=O)N(Cc1csc(N2CCNCC2)n1)c1ccc(F)cc1 [Compound 152]; 5.08
CC(C)(C)C(=O)N(Cc1csc(N2CCC(O)CC2)n1)c1ccc(F)cc1 [Compound 182]; 5.09
CCN(c1nc(CN(C(=O)C(C)(C)C)c2cccc3c2CCCC3)cs1)C1CC1 [Compound 176]; 5.15
CC(C)(C)C(=O)N(Cc1csc(N2CCCCCCC2)n1)c1ccc(F)cc1 [Compound 184]; 5.80
CC(C)(C)C(=O)N(Cc1csc(-c2ccccc2C(F)(F)F)n1)c1ccc(F)cc1 [Compound 243]; 5.39

[a] CC(=O)N(Cc1csc(N2CCN(C)CC2)n1)c1ccc(F)cc1 [Compound 216]
[b] CC(C)(C)C(=O)N(Cc1csc(-c2ccccc2O)n1)c1ccc(F)cc1 [Compound 246]
Between a and b , which one has the lower reported pIC50 value? Please identify the chosen entry by its label. a

[A] CN1CCN(c2ccc(CN(C(=O)C3CCCO3)c3ccc(F)cc3)cn2)CC1 (centres unmarked) [Compound 250]
[B] CC(C)(C)C(=O)N(Cc1csc(Nc2ccc(F)cc2)n1)c1ccc(F)cc1 [Compound 158]
[C] CC(C)(C)C(=O)N(CCCc1csc(N2CCOCC2)n1)c1ccc(F)cc1 [Compound 213]
Put these in order: smallest pIC50 first, largest last. Please write the labels in the order that was asked for. A, B, C
(A: 4.46, B: 5.03, C: 5.42)

[a] CC(C)(C)C(=O)N(Cc1csc(N2CCC(c3ccccc3)CC2)n1)c1ccc(F)cc1 [Compound 193]
[b] CN1CCN(c2ccc(CN(C(=O)[C@H]3CCNC3)c3ccc(F)cc3)cn2)CC1 [Compound 258]
[c] CC(C)(C)C(=O)N(Cc1csc(N2C[C@@H]3C[C@H]2CN3)n1)c1ccc(F)cc1 [Compound 162]
List from greatest to least pIC50. I would appreciate it if you listed the labels in the requested order. a, c, b
(a: 5.51, c: 4.96, b: 4.24)

---

# system: Cav2.2 (Homo sapiens)
# Construct: expressed in transfected cells; host or cells: HEK-293T/17 (transient, FuGENE 6)
# assay.remarks: HEK assay (whole-cell patch clamp, transiently transfected HEK-293T/17 cells, pulses P1 and P5)
# Assay type: cell-based
# experimental.context: fifth pulse (P5) of 5 Hz train, holding potential −100 mV, read-out: HEK Cav2.2 P5 IC50
Structures can show the parent of a compound that is named as a salt.
measured.quantity: IC50 (nM)

CCN(Cc1ccncc1)c1ccc(CN(C(=O)C(C)(C)C)c2ccc(F)cc2)cn1; 2000

[1] CCN(c1nc(CN(C(=O)C(C)(C)C)c2ccc(F)cc2)cs1)C1CC1
[2] CCN(c1cccc(CN(C(=O)C(C)(C)C)c2ccc(F)cc2)c1)C1CC1 [Compound 6, hydrochloride]
In terms of reported IC50, does 1 or 2 have the smaller number? Refer to your chosen item by its label in the answer. 1
